tested on: pigweed (Amaranthus retroflexus); test: Test A pre-/postemergence greenhouse herbicide test, visual injury rating 0-100; type: in vivo; conditions: Preemergence, 125 g ai/ha
// returns 0 unless Pigweed plant response rating (0 = no effect, 100 = complete control) is strictly below 50, in which case 1

[[record]]
compound = "O=C(c1cncc(F)c1)c1c[nH]nc1-c1cc(F)cc(F)c1 [Compound 23]"
testedtarget = "pigweed (Amaranthus retroflexus)"
class = 0

[[record]]
compound = "O=Cn1cc(C(=O)c2ccccc2)c(-c2cc(Cl)cc(Cl)c2)n1 [Compound 28]"
testedtarget = "pigweed (Amaranthus retroflexus)"
class = 0

[[record]]
compound = "Cn1cc(C(=O)c2cccnc2)c(-c2cc(Cl)cc(Cl)c2)n1 [Compound 6]"
testedtarget = "pigweed (Amaranthus retroflexus)"
class = 1

[[record]]
compound = "O=C(c1ccccc1)c1cn(C(=O)Cc2ccccc2)nc1-c1cc(Cl)cc(Cl)c1 [Compound 4]"
testedtarget = "pigweed (Amaranthus retroflexus)"
class = 0

[[record]]
compound = "Clc1cc(Cl)cc(-c2n[nH]cc2C2(c3ccccc3)SCCS2)c1 [Compound 69]"
testedtarget = "pigweed (Amaranthus retroflexus)"
class = 1

[[record]]
compound = "O=C(c1ccccc1)c1cn(S(=O)(=O)CCl)nc1-c1cc(Cl)cc(Cl)c1 [Compound 1]"
testedtarget = "pigweed (Amaranthus retroflexus)"
class = 1

[[record]]
compound = "CC(=O)Cn1cc(C(=O)c2ccccc2)c(-c2cc(Cl)cc(Cl)c2)n1 [Compound 45]"
testedtarget = "pigweed (Amaranthus retroflexus)"
class = 1

